Reported TGI values for a set of molecules
# Test system: TK-10 renal
# assay_details: NCI tumour cell line growth inhibition, 48 h
Write down the numeric answer in µM and omit the unit.

These recorded examples may help you get a feel for the data.
Respond only with TGI recorded for COc1ccc(C=O)cc1Oc1ccc(C[C@H]2c3c(cc(OC)c4c3Oc3cc5c(cc3O4)CCN(C)C5=O)CCN2C)cc1
18.4

Respond only with TGI recorded for CC(=O)Nc1ccc(-n2cnc3cc(-c4ccc(OCCN5CCCCC5)cc4)ccc32)cc1
15.9

Respond only with TGI recorded for CSc1s[s+]c(SC)c1-c1ccccc1
32.4

New cases:
Respond only with TGI recorded for N#CC(=C=[N-])[n+]1ccc(Cl)cc1
45.8

Respond only with TGI recorded for CC(C)CC1c2[nH]c3ccccc3c2C[C@H]2C(=O)NC(COC(C)(C)C)C(=O)N12 (stereo not given in full)
56.3

Respond only with TGI recorded for C=C(C)[C@]12CC(C)C34OC(/C=C\C=C\CCCCCCCCC)(O[C@@H]1[C@@H]3[C@@H]1O[C@]1(CO)[C@@H](O)[C@]1(O)C(=O)C(C)=C[C@@H]41)O2 (stereo not given in full)
19.1

Respond only with TGI recorded for CC(C)[Si]1(C(C)C)OCC2OC(n3cnc4c(N)ncnc43)C(N)C2O[Si](C(C)C)(C(C)C)O1 (stereo not given)
28.9
